Where do the numbers come from? From the supplement of paper PMC10899765.

System: HeLa
Protocol: nucleolar rRNA biogenesis percent inhibition (5-EU; siNT 0%, siPOLR1A 100%); higher = stronger inhibition of nucleolar rRNA biogenesis
Study conditions: 20 nM; 72 h
Please enter Y where nucleolar rRNA biogenesis percent inhibition is greater than or equal to 60%, and N where it is lower.

Solved entries:
ACUCGGCGUGGCGUCGGUCGUG [hsa-miR-1307-3p]    N
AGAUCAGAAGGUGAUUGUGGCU [hsa-miR-383-5p]    Y
UAAGGCACGCGGUGAAUGCC [hsa-miR-124-3p]    Y

query: Hello, I need to know if GGCCAGCCACCAGGAGGGCUG [hsa-miR-3194-5p] has measured nucleolar rRNA biogenesis percent inhibition not below 60%. Thanks!
result: N

query: Given UAUGGCACUGGUAGAAUUCACU [hsa-miR-183-5p] , state whether its nucleolar rRNA biogenesis percent inhibition is at least 60%.
result: N

query: Please check the record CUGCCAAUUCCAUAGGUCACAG [hsa-miR-192-3p] and state if its nucleolar rRNA biogenesis percent inhibition is at or above 60%.
result: N

query: Form field: nucleolar rRNA biogenesis percent inhibition at least 60%? Entry: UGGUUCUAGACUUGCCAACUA [hsa-miR-182-3p]
result: N

query: Given the entry UCUCUGGGCCUGUGUCUUAGGC [hsa-miR-330-5p] , answer whether its nucleolar rRNA biogenesis percent inhibition meets or surpasses 60%.
result: Y

query: Decide: nucleolar rRNA biogenesis percent inhibition of AGAAGGCACUAUGAGAUUUAGA [hsa-miR-605-3p] >= 60%?
result: N

query: Say whether AGUUUUGCAGGUUUGCAUCCAGC [hsa-miR-19b-1-5p] shows nucleolar rRNA biogenesis percent inhibition of 60% or more.
result: Y
